Measurement record for human norepinephrine transporter (Homo sapiens, UniProt P23975); quantity recorded: IC50.
Answers are plain numbers, in µM.

Prompt: Quick one: IC50 for O=C(OC1C(O)C(CO)OC(OC2COC(CO)C(O)C2O)C1O)c1ccccc1 (centres unmarked) [Compound 2] ?
Response: 6.04

Please examine the following record next.
Prompt: Requested read-out: IC50. Entry: O=C(OCC1OC(OC2COC(CO)C(O)C2O)C(O)C(O)C1O)c1ccccc1 (centres unmarked) [Compound 1]
Response: 30
